# Assay system: human CRMP-2 (Homo sapiens, UniProt Q16555)
pKd: −log10 of the molar value.
Measurement kind: pKd

Query: Field: pKd (human CRMP-2 (Homo sapiens, UniProt Q16555)). Entry: COC[C@@H](NC(C)=O)C(=O)NCc1ccccc1 [Lacosamide]
Response: > 5.30
